Molecular target: Phosphatidylinositol 4,5-bisphosphate 3-kinase catalytic subunit alpha isoform (Homo sapiens)
Sequence (P42336 whole entry, canonical isoform): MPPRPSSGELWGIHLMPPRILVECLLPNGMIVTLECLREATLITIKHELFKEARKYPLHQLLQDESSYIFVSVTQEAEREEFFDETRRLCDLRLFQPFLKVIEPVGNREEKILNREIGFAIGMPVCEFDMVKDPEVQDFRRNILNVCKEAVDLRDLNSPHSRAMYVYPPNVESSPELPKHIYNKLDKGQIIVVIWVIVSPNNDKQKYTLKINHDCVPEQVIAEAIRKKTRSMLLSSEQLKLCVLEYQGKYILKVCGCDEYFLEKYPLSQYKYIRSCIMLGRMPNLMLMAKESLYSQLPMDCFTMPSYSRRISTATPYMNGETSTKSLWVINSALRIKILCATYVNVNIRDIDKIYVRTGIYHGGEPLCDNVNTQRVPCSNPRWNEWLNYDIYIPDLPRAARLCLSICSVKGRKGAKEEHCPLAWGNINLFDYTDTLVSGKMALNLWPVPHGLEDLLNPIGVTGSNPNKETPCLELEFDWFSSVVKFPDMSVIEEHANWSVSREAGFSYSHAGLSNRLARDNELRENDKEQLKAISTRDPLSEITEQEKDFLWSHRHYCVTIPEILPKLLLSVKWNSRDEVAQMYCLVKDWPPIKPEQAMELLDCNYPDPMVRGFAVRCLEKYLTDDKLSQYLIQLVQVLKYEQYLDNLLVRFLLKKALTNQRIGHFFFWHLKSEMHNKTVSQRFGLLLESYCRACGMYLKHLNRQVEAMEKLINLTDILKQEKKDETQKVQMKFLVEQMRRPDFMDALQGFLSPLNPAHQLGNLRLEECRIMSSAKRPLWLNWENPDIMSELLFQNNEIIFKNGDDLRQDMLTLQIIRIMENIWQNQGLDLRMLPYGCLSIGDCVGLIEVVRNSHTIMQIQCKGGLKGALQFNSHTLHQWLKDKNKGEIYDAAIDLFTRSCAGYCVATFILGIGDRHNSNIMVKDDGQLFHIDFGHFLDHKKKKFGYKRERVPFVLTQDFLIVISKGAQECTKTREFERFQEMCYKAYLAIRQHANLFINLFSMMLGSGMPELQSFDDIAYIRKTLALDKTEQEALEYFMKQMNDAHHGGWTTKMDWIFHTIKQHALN
Test: Inhibition of PI3K-alpha (unknown origin) by KinaseGlo assay
measured_parameter: pIC50
The scale used: pIC50 is minus the common logarithm of the concentration in molar units.

State its pIC50: CCC(=O)N1CC[C@H](Oc2ccnc3ccc(-c4ccc(OC)nc4)cc23)C1
6.66

State its pIC50: COc1ccc(-c2ccc3ncnc(O[C@@H]4CCN(C(=O)OC(C)(C)C)C4)c3c2)cc1OC
6.16

State its pIC50: COc1ccc(-c2ccc3ncnc(O[C@H]4CCN(C(=O)OC(C)(C)C)C4)c3c2)cc1OC
6.83

====

Assay: Solubility of the compound at pH 6.8 by high-throughput equilibrium analysis
Format: physicochemical
Conditions: buffer
Use TRUE when the recorded solubility thermodynamic is no lower than 80 µM; use FALSE when it is lower.

Can CCC(=O)N1CC[C@H](Oc2ncnc3ccc(-c4cnc(OC)c(C#N)c4)cc23)C1 be said to have solubility thermodynamic at or above 80 µM?
FALSE

Can COc1ccc(-c2ccc3ncnc(O[C@H]4CCN(C(C)=O)C4)c3c2)cc1OC be said to have solubility thermodynamic at or above 80 µM?
TRUE

Can COc1ccc(-c2ccc3ncnc(O[C@@H]4CCN(C(C)=O)C4)c3c2)cc1OC be said to have solubility thermodynamic at or above 80 µM?
TRUE

Can CCC(=O)N1CC[C@H](Oc2cnnc3ccc(-c4ccc(OC)nc4)cc23)C1 be said to have solubility thermodynamic at or above 80 µM?
TRUE

Can CCC(=O)N1CC[C@H](Oc2ccnc3ccc(-c4ccc(OC)nc4)nc23)C1 be said to have solubility thermodynamic at or above 80 µM?
TRUE

Can COc1ccc(-c2ccc3ncnc(O[C@H]4CCN(C(=O)OC(C)(C)C)C4)c3c2)cc1OC be said to have solubility thermodynamic at or above 80 µM?
FALSE

Can CCC(=O)N1CC[C@H](Oc2ccnc3ccc(-c4ccc(OC)nc4)cc23)C1 be said to have solubility thermodynamic at or above 80 µM?
TRUE

Can COc1ccc(-c2ccc3ncnc(O[C@@H]4CCN(C)C4)c3c2)cc1OC be said to have solubility thermodynamic at or above 80 µM?
TRUE

Can COc1ccc(-c2ccc3ncnc(-c4cccc(C(=O)N5CCN(C(C)=O)CC5)c4)c3c2)cc1OC be said to have solubility thermodynamic at or above 80 µM?
TRUE

Can CCC(=O)N1CC[C@@H](Oc2cnc3ccc(-c4ccc(OC)c(OC)c4)cc3n2)C1 be said to have solubility thermodynamic at or above 80 µM?
FALSE

Can COc1ccc(-c2ccc3ncnc(O[C@H]4CCN(C)C4)c3c2)cc1OC be said to have solubility thermodynamic at or above 80 µM?
TRUE

Can COc1ccc(-c2ccc3ncnc(O[C@@H]4CCN(C(=O)OC(C)(C)C)C4)c3c2)cc1OC be said to have solubility thermodynamic at or above 80 µM?
FALSE

Can CCC(=O)N1CC[C@H](Oc2ncnc3ccc(-c4ccc(OC)nc4)cc23)C1 be said to have solubility thermodynamic at or above 80 µM?
TRUE
